tested on: SK-OV-3 ovarian; assay: NCI tumour cell line growth inhibition, 48 h
The entries below come with measured TGI values attached.
OBSERVATION TYPE: TGI

[[record]]
compound = "CC(C)(C)NC(=S)N/N=C/c1ccccn1"
experimental_result = "> 100 µM"

[[record]]
compound = "COC1(C)CNCC(C)(C)NC(=O)C(C)(OC)CNCC(C)(C)NC1=O (stereo not drawn)"
experimental_result = "> 100 µM"

[[record]]
compound = "CCC(=O)CCC1=Nc2nnc(CCCCc3nnc4n3C(=O)C(CCC(=O)CC)=N4)n2C1=O"
experimental_result = "> 100 µM"


###

Form field: TGI (one value per entry).
test system: NCI/ADR-RES ovarian; test: NCI tumour cell line growth inhibition, 48 h
OBSERVATION TYPE: TGI

[[record]]
compound = "CC(=N/NC(N)=S)/C(C)=N/NC(N)=S"
experimental_result = "> 100 µM"

[[record]]
compound = "c1ccc(/C(=N\\Nc2nc3ccccc3s2)c2ccccn2)cc1"
experimental_result = "> 100 µM"

[[record]]
compound = "COc1cc([C@@H]2c3cc4c(cc3[C@@H](NC(=O)NO)[C@H]3COC(=O)[C@H]23)OCO4)cc(OC)c1O"
experimental_result = "93.1 µM"

[[record]]
compound = "Nc1ncnc2c1ncn2CCCCC(=O)O"
experimental_result = "> 100 µM"

[[record]]
compound = "O=C(O)c1cc(Cl)cc(Cc2cc(Cl)cc(C(=O)O)c2O)c1O"
experimental_result = "> 100 µM"

[[record]]
compound = "CC(=O)O[C@H]1CC[C@]2(C)C3C(=O)C[C@]4(C)[C@@H](C(C)CCC(=O)O)CC[C@@]4(C)[C@@H]3CC[C@H]2C1(C)C (stereo not given in full)"
experimental_result = "> 50 µM"

[[record]]
compound = "CCN1C/C(=C\\c2ccc(Cl)cc2)c2[nH]c(=O)c(C#N)c(-c3ccc(Cl)cc3)c2C1"
experimental_result = "> 100 µM"

[[record]]
compound = "Cc1ccc2c(c1)C(O)(c1ccccc1)CCS2 (stereo not given)"
experimental_result = "> 100 µM"

[[record]]
compound = "COc1ccc(NC(=O)NNS(=O)(=O)c2ccc(C)cc2)cc1"
experimental_result = "> 100 µM"

[[record]]
compound = "O=C(NCCN(CCNC(=O)c1cccc(=O)n1O)CCNC(=O)c1cccc(=O)n1O)c1cccc(=O)n1O"
experimental_result = "> 100 µM"


###

test system: KM12 colon; test: NCI tumour cell line growth inhibition, 48 h
OBSERVATION TYPE: TGI

[[record]]
compound = "O=C(NCCN(CCNC(=O)c1cccc(=O)n1O)CCNC(=O)c1cccc(=O)n1O)c1cccc(=O)n1O"
observation_type = "TGI"
experimental_result = "> 100 µM"

[[record]]
compound = "COC1OC(Cn2cc([N+](=O)[O-])nc2C)C(O)C(O)C1O (stereo not given)"
observation_type = "TGI"
experimental_result = "> 100 µM"

[[record]]
compound = "C/C(=N\\NC(=S)N1CCN(c2ccccn2)CC1)c1cccc2cccnc12"
observation_type = "TGI"
experimental_result = "> 100 µM"

[[record]]
compound = "COc1ccc(C(Nc2ccccn2)c2cc(C(C)(C)C)cc(C(C)(C)C)c2O)cc1 (stereo not given)"
observation_type = "TGI"
experimental_result = "63.8 µM"

[[record]]
compound = "CCc1ccccc1NC(=O)C(=O)C(C#N)c1c(Cl)cccc1Cl (stereo not given)"
observation_type = "TGI"
experimental_result = "> 100 µM"


###

This listing pairs compounds with measured TGI.
system: SNB-19 CNS; assay: NCI tumour cell line growth inhibition, 48 h
OBSERVATION TYPE: TGI

[[record]]
compound = "CCC(C)C(=O)OC1CCC=C2C=CC(C)C(CCC3CC(O)CC(=O)O3)C21 (centres undefined)"
experimental_result = "> 100 µM"

[[record]]
compound = "O=C1C2C3C=C4c5ccccc5N(c5ccccc5)C4([C@@H]2C(=O)N1c1ccc(F)cc1)[C@H]1C(=O)N(c2ccc(F)cc2)C(=O)[C@@H]31 (some centres undefined)"
experimental_result = "> 100 µM"

[[record]]
compound = "CCOC(=O)CCc1ccc(NC(=O)/C=C/c2ccc([N+](=O)[O-])o2)cc1"
experimental_result = "> 71.6 µM"

[[record]]
compound = "COc1nc2c(c(=O)[nH]1)N=C(c1ccc(Cl)cc1)CC(c1ccccc1)N2 (centres undefined)"
experimental_result = "> 100 µM"

[[record]]
compound = "Cc1cn(C2CC(O)C(COC(N)=O)O2)c(=O)[nH]c1=O (centres undefined)"
experimental_result = "> 100 µM"

[[record]]
compound = "COc1cc(C(=O)OC2CC34CCNC35CC(OC5(OC)C2O)c2cc3c(cc24)OCO3)ccc1O (centres undefined)"
experimental_result = "> 100 µM"

[[record]]
compound = "CCOC(=O)c1cc2c(n1Cc1cc(OC)cc(OC)c1)-c1oncc1CC2"
experimental_result = "> 100 µM"

[[record]]
compound = "Cn1c(N)c(/C=C/C(=O)Oc2ccccc2)c(=O)n(C)c1=O"
experimental_result = "> 100 µM"

[[record]]
compound = "O=c1[nH]c(=O)n(C2CC(O)C(COP(=O)(OCC(Cl)(Cl)Cl)OCC(Cl)(Cl)Cl)O2)cc1F (centres undefined)"
experimental_result = "> 100 µM"

[[record]]
compound = "CC(=O)O[C@H]1CC[C@]2(C)C3C(=O)C[C@]4(C)[C@@H](C(C)CCC(=O)O)CC[C@@]4(C)[C@@H]3CC[C@H]2C1(C)C (some centres undefined)"
experimental_result = "> 50 µM"

[[record]]
compound = "N#CCCN(CCC#N)c1ccc(/C=C(/NC(=O)Nc2ccccc2Cl)NC(=O)c2cc([N+](=O)[O-])ccc2Cl)cc1"
experimental_result = "> 100 µM"

[[record]]
compound = "c1ccc(/C(=N\\Nc2nc3ccccc3s2)c2ccccn2)cc1"
experimental_result = "> 100 µM"

[[record]]
compound = "Cc1cc(OCc2nn(CN3CCN(C)CC3)c(=S)n2/N=C/c2ccc(F)cc2)ccc1Cl"
experimental_result = "33.8 µM"

[[record]]
compound = "COc1ccc(C2=NN(C(=O)c3ccc(Cl)cc3)C(O)(c3cc(F)c(Cl)cc3Cl)C2)cc1 (centres undefined)"
experimental_result = "> 100 µM"

[[record]]
compound = "O=C(O)c1cc(Cl)cc(Cc2cc(Cl)cc(C(=O)O)c2O)c1O"
experimental_result = "> 100 µM"

[[record]]
compound = "N#CC(C#N)=Cn1c(=S)[nH]c2ccc([N+](=O)[O-])cc21"
experimental_result = "> 100 µM"

[[record]]
compound = "O=C(NC(CCCCN1C(=O)c2ccccc2C1=O)P(=O)(Oc1ccccc1)Oc1ccccc1)OCc1ccccc1 (centres undefined)"
experimental_result = "> 100 µM"

[[record]]
compound = "O=C(Nc1ccc(Cl)cc1)N1CCN(c2ccc3nncn3n2)CC1"
experimental_result = "> 100 µM"

[[record]]
compound = "CC(O)C1OC(n2ccc(=O)[nH]c2=O)CC1n1cncn1 (centres undefined)"
experimental_result = "> 100 µM"

[[record]]
compound = "NC(=O)c1ncn2c(=O)n(CCCl)nnc12"
experimental_result = "995 µM"

[[record]]
compound = "CN1CCN(Cc2ccccc2)CC1CC#N (centres undefined)"
experimental_result = "> 100 µM"

[[record]]
compound = "Cc1ccc(CN2CCN(Cc3ccc(C)o3)C(C)C2)o1 (centres undefined)"
experimental_result = "> 100 µM"

[[record]]
compound = "CC(C)(C)OC1=C(OC(C)(C)C)C(O)(c2ccc(Cl)cc2)C1=O (centres undefined)"
experimental_result = "> 100 µM"

[[record]]
compound = "N#Cc1c(N)c2c(c(-c3ccccc3)c1-c1ccccc1)C(=O)N(O)C2=O"
experimental_result = "> 100 µM"

[[record]]
compound = "COc1cc(/C=N/n2c(C)n[nH]c2=O)cc(OC)c1OC"
experimental_result = "> 100 µM"

[[record]]
compound = "C/C=C1/C(=Cc2[nH]c(C=c3[nH]/c(=C/C4=NC(=O)C(CC)=C4C)c(C)c3CCC(=O)O)c(CCC(=O)O)c2C)NC(=O)C1C (centres undefined)"
experimental_result = "> 50 µM"

[[record]]
compound = "CCOC(=O)/C(=C\\c1c(C)[nH]c2ccccc12)P(=O)(OCC)OCC"
experimental_result = "> 100 µM"

[[record]]
compound = "CCOC(OC1=C(C#N)CCCC1)C(CC)[Se]c1ccccc1[N+](=O)[O-] (centres undefined)"
experimental_result = "72.5 µM"

[[record]]
compound = "COc1cc(-c2ccccc2)cn2c1nc1ccccc12"
experimental_result = "69.3 µM"

[[record]]
compound = "COc1cc2c(cc1OC)[C@H]1C(COC(=O)Nc3ccccc3)CN1CC2 (some centres undefined)"
experimental_result = "> 100 µM"

[[record]]
compound = "Cc1cnc2[nH]c(-c3ccc(Cl)cc3)cc(=O)c2c1"
experimental_result = "> 100 µM"

[[record]]
compound = "C/C=C(\\C)C(=O)O[C@@H]1C=CC(=O)O[C@H]1CNC(=O)[C@H](C)O"
experimental_result = "> 74.8 µM"

[[record]]
compound = "CN1C(=O)N(c2nc3ccccc3[nH]2)C(C)(C)C1=O"
experimental_result = "> 100 µM"

[[record]]
compound = "COC(=O)[C@@H]1[C@H]2CC[C@]3(C)[C@@H](OC(C)=O)CC[C@H]3[C@@H]2CC[C@H]1C(C)=O"
experimental_result = "> 100 µM"

